Each item that follows carries a reported pIC50.
Biological target: PARP7 (Homo sapiens (Human), UniProt Q7Z3E1)
Sequence (Q7Z3E1 whole entry): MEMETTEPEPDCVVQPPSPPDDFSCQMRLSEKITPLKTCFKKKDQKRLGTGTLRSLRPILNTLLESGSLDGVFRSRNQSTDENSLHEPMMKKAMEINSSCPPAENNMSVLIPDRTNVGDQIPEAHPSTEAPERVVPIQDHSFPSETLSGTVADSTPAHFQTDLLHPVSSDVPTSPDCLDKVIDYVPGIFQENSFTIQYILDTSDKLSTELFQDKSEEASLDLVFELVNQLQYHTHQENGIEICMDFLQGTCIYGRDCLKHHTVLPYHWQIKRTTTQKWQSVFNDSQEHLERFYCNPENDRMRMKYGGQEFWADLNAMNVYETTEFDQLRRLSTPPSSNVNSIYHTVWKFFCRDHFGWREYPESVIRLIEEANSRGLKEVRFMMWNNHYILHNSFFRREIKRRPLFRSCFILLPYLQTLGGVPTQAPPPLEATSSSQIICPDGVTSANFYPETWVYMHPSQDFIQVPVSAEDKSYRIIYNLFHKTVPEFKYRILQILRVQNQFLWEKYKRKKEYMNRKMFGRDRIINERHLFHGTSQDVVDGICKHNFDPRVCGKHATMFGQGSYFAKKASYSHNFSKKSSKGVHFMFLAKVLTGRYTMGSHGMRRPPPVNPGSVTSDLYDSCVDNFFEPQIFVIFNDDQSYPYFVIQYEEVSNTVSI
Assay: Enzymatic assay for inhibition of PARP7: TR-FRET displacement of biotinylated Probe A from the TIPARP active site
Details: Table A-1
pIC50: −log10 of the molar value.

Example entries begin here.
1. N#Cc1ccc(N2CCN(C(=O)CNCCOc3cccc4c3CN(c3cn[nH]c(=O)c3C(F)(F)F)C4)CC2)nc1 : > 7.00
2. N#Cc1ncc(N2CCN(C(=O)CCOC[C@@H]3CCCN3c3cn[nH]c(=O)c3C(F)(F)F)CC2)cn1 : 6.00 to 7.00
3. CC(=O)N1CCC(COc2cc3c(cc2F)CN(c2cn[nH]c(=O)c2C(F)(F)F)C3)CC1 : > 7.00

From here, focus on the item given below.
## Task # input compound: O=C(CCOC[C@H](CO)Nc1cn[nH]c(=O)c1C(F)(F)F)N1CCN(c2ncc(C(F)(F)F)cn2)CC1 ; wanted: its pIC50
## Result > 7.00
